Every entry's value here was drawn from ChEMBL document CHEMBL5528001.

Tested on: Leishmania donovani
Assay: Antileishmanial activity against Leishmania donovani amastigotes
Assay type: functional, organism-based
endpoint.label: pIC50
Scale: negative log10 of molar concentration, which is what pIC50 denotes.

- smi: "C#CCN1C(=O)CN(/N=C/c2ccc([N+](=O)[O-])o2)C1=O"
  target.under.test: "Leishmania donovani"
  result: 6.41

Let us move to another entry and its pIC50.
The compound identified as CCCCCCCn1cc(CN2C(=O)CN(/N=C/c3ccc([N+](=O)[O-])o3)C2=O)nn1 registered its pIC50 at 6.42

----------
Assay: Cytotoxicity against human WI-38 cells assessed as reduction in cell viability incubated for 48 hrs by MTT assay
Assay type: toxicity, cell-based
endpoint.label: CC50 at 48 h (µM)
Field: numeric (µM). Do not append units.

The compound identified as COc1ccc(Br)cc1CN(C)C12CC3CC(CC(C3)C1)C2 registered its CC50 at 48 h at 63.7

----------
Tested on: Leishmania amazonensis
Test: Antileishmanial activity against Leishmania amazonensis promastigotes assessed as reduction in parasite viability after 72 hrs by CCK-8 assay
Assay type: functional, organism-based
endpoint.label: EC50 (nM)
Field: numeric (nM). Do not append units.

Fill in: Leishmania amazonensis EC50 for COc1cc(OC)c(C(=O)/C=C/c2cccc(C)c2)c([N+](=O)[O-])c1 = 420

----------
Test system: NCI-H1299
Assay: Antiproliferative activity against human NCI-H1299 cells assessed as reduction in cell viability incubated for 48 hrs by MTT assay
Assay type: functional, cell-based
Conditions: NCI-H1299, 48 h
endpoint.label: IC50 (µM)
Field: numeric (µM). Do not append units.

- smi: "N#C[Se]c1ccc2c(c1)OCO2"
  endpoint.label: "IC50"
  result: 82.5

Let us move to another entry and its IC50.
The compound identified as N#C[Se]/C=C/c1ccccc1 registered its IC50 at 11.9

----------
Test system: Leishmania infantum
Test: Antileishmanial activity against Leishmania infantum amastigotes infected in human THP-1 cells assessed as reduction in parasite growth
Assay type: functional, organism-based
endpoint.label: IC50

The compound identified as COc1ccc(Br)cc1CN(C)C12CC3CC(CC(C3)C1)C2 registered its IC50 at 320 nM

----------
System: Leishmania infantum
Experiment: Antileishmanial activity against Leishmania infantum MHOM/BR/70/BH46 promastigotes assessed as reduction in parasite growth incubated for 72 hrs by resazurin staining based analysis
Type: functional, organism-based
Conditions: MHOM/BR/70/BH46, 72 h
endpoint.label: pIC50
Scale: negative log10 of molar concentration, which is what pIC50 denotes.

The compound identified as Cc1cc(Br)cc2c(/C=N/NC(=S)Nc3ccccc3)c[nH]c12 registered its pIC50 at 5.25

----------
Test: Cytotoxicity against African green monkey Vero cells assessed as reduction in cell viability by MTT assay
Type: toxicity, cell-based, Chlorocebus sabaeus
endpoint.label: pIC50
Scale: negative log10 of molar concentration, which is what pIC50 denotes.

The molecule identified as O=C(N/N=C\c1ccc([N+](=O)[O-])o1)c1ccc(OS(=O)(=O)c2cccnc2)cc1 registered its pIC50 at 5.49

----------
System: Leishmania donovani
Assay: Antileishmanial activity against Leishmania donovani amastigotes infected in human THP-1 cells assessed as inhibition of parasite infection incubated for 72 hrs by DAPI staining based assay
Assay type: functional, organism-based
Details: THP-1, 72 h
Measured pIC50 of individual entries
Scale: negative log10 of molar concentration, which is what pIC50 denotes.

- compound: "CCCC(=O)N1N=C(c2ccccc2)CC1c1cn(-c2ccc(Cl)cc2)nc1-c1ccccc1 (stereo not drawn)"
  endpoint.label: "pIC50"
  result: 5.84
- compound: "CC(=O)N1N=C(c2ccccc2)CC1c1cn(-c2ccc(C)cc2)nc1-c1ccccc1 (stereo not drawn)"
  endpoint.label: "pIC50"
  result: 6.00

Let us move to another entry and its pIC50.
The compound identified as O=C(c1ccccc1)N1N=C(c2ccccc2)CC1c1cn(-c2ccc(Cl)cc2)nc1-c1ccccc1 (stereo not drawn) registered its pIC50 at 6.06
